Cited source: patent US9468661B2

assay_system: human factor D (Homo sapiens (Human), UniProt P00746)
Sequence (P00746 26-253): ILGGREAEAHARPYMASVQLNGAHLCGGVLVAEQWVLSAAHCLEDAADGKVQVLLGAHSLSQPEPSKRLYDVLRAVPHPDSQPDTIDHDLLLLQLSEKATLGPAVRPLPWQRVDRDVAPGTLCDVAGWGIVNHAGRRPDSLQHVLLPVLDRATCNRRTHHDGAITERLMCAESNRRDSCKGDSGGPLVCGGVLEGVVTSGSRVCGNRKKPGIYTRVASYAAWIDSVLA
assay_protocol: biochemical
Assay type: biochemical
experimental_context: Factor D inhibition data using Method 1; recombinant human factor D 10 nM, substrate Z-Lys-thiobenzyl, fluorescence; read-out: IC50
outcome_measure: IC50 (nM)

| compound | outcome_measure | result_units | observed_measurement |
| --- | --- | --- | --- |
| C[C@@]1(F)C[C@@H](C(=O)NC[C@H]2CC2(Cl)Cl)N(C(=O)Cn2nc(C(N)=O)c3ccccc32)C1 | IC50 | nM | 124 |
| CC(=O)c1nn(CC(=O)N2[C@@H]3C[C@@H]3C[C@H]2C(=O)NC[C@H]2CC2(Cl)Cl)c2ccc(O)cc12 | IC50 | nM | 58 |
| CC(=O)c1nn(CC(=O)N2[C@@H]3C[C@@H]3C[C@H]2C(=O)NC[C@H]2CC2(Cl)Cl)c2ccc(OCc3ncccc3F)cc12 | IC50 | nM | 32 |
| NC(=O)c1nn(CC(=O)N2[C@@H]3C[C@@H]3C[C@H]2C(=O)NC[C@@H]2CC2(Cl)Cl)c2ccccc12 | IC50 | nM | 90 |
| CC(=O)c1nn(CC(=O)N2[C@@H]3C[C@@H]3C[C@H]2C(=O)NC2(C3CCCCC3)CC2)c2cnccc12 | IC50 | nM | 358 |
| Cc1cc2c(C(N)=O)nn(CC(=O)N3[C@@H]4C[C@@H]4C[C@H]3C(=O)N[C@H](C)[C@H]3CC3(Cl)Cl)c2c(C)n1 | IC50 | nM | 43 |
| CC1CCCC1CNC(=O)[C@@H]1C[C@H]2C[C@H]2N1C(=O)Cn1nc(C(N)=O)c2ccncc21 (single isomer, unassigned; dia 1) [Example 85] | IC50 | nM | 1410 |
| NC(=O)c1nn(CC(=O)N2[C@@H]3C[C@@H]3C[C@H]2C(=O)N[C@H](CO)C23CC(C(F)(F)F)(C2)C3)c2ccccc12 | IC50 | nM | 1240 |
| NC(=O)c1nn(CC(=O)N2[C@@H]3C[C@@H]3C[C@H]2C(=O)NC[C@H]2CC2(Cl)Cl)c2ccccc12 | IC50 | nM | 32 |
| CC(=O)c1nn(CC(=O)N2[C@@H]3C[C@@H]3C[C@H]2C(=O)NC[C@H]2CC2(Cl)Cl)c2ccc(OCc3nccc(C)n3)cc12 | IC50 | nM | 8 |
| NC(=O)c1nn(CC(=O)N2[C@@H]3C[C@@H]3C[C@H]2C(=O)NC[C@@H]2CC2(Cl)Cl)c2cnccc12 | IC50 | nM | 136 |
| CC1CCCC1CNC(=O)[C@@H]1C[C@H]2C[C@H]2N1C(=O)Cn1nc(C(N)=O)c2ccncc21 (single isomer, unassigned; dia 4) [Example 88] | IC50 | nM | 781 |
| CC(=O)c1nn(CC(=O)N2[C@@H]3C[C@@H]3C[C@H]2C(=O)NC[C@H]2CC2(Cl)Cl)c2cnccc12 | IC50 | nM | 24 |

---

assay_system: human factor D (Homo sapiens (Human))
assay_protocol: biochemical
Format: biochemical
experimental_context: Factor D inhibition data using Method 1; recombinant human factor D 10 nM, substrate Z-Lys-thiobenzyl, fluorescence; read-out: IC50
Procedure: Human Complement Factor D Assay: Method 1 Recombinant human factor D (expressed in E. coli and purified using standard methods) at 10 nM concentration is incubated with test compound at various concentrations for 1 hour at room temperature in 0.1 M Hepes buffer, pH 7.5, containing 1 mM MgCl2, 1 M NaCl and 0.05% CHAPS. […] The increase in fluorescence is recorded at excitation of 485 nm and emission at 535 nm in a microplate spectrofluorimeter. […]
Criterion: IC50 strictly under 400 nM. Met: condition met. Not met: condition not met.

| compound | category |
| --- | --- |
| CC(=O)c1nn(CC(=O)N2[C@@H]3C[C@@H]3C[C@H]2C(=O)NCC2CCCCC2(C)C)c2cnccc12 (single isomer, unassigned; dia 2) [Example 22] | condition not met |
| CC(=O)c1nn(CC(=O)N2[C@@H]3C[C@@H]3C[C@H]2C(=O)NC[C@H]2CC2(Cl)Cl)c2ccc(OC(C)c3ncccn3)cc12 (stereo partly drawn) | condition met |
| CC1CCCC(CNC(=O)[C@@H]2C[C@H]3C[C@H]3N2C(=O)Cn2nc(C(N)=O)c3ccncc32)C1 (single isomer, unassigned; dia 2) [Example 116] | condition not met |
| CC(=O)c1nn(CC(=O)N2[C@@H]3C[C@@H]3C[C@H]2C(=O)N[C@H](C)C2CCCCC2)c2cnccc12 | condition met |
| CC(=O)c1nn(CC(=O)N2[C@@H]3C[C@@H]3C[C@H]2C(=O)NC[C@H]2CC2(Cl)Cl)c2ncccc12 | condition met |
